The measured values listed here are drawn from ChEMBL document CHEMBL5291721.

- Measured Target: B2 bradykinin receptor (Homo sapiens); note: assay procedure not described here
- Sequence (P30411 whole entry): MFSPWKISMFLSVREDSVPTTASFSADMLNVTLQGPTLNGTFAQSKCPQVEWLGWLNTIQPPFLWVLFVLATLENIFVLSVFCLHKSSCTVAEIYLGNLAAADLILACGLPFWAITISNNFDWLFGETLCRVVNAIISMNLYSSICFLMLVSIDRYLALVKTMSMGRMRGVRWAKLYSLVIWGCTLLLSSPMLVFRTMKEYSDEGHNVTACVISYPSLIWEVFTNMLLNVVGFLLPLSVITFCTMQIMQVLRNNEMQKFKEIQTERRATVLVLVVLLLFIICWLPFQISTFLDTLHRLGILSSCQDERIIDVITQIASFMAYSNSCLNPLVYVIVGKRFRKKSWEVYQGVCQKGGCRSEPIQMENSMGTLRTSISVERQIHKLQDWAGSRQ

| Compound | AC50 |
| --- | --- |
| C#CCN[C@@H]1CCc2ccccc21 | > 30 µM |
| CC[C@]1(O)C[C@@H]2CN(CCc3c([nH]c4ccccc34)[C@@](C(=O)OC)(c3cc4c(cc3OC)N(C)[C@H]3[C@@](O)(C(N)=O)[C@H](O)[C@]5(CC)C=CCN6CC[C@]43[C@@H]65)C2)C1 | > 30 µM |
| CC1=CC(=O)c2ccccc2C1=O | > 10 µM |
| O=P(O)(O)C(O)(Cc1cccnc1)P(=O)(O)O | > 30 µM |
| COC(=O)[C@H]1[C@@H](OC(=O)c2ccccc2)C[C@@H]2CC[C@H]1N2C | > 30 µM |
| CCCCCOC(=O)Nc1nc(=O)n([C@@H]2O[C@H](C)[C@@H](O)[C@H]2O)cc1F | > 30 µM |
| O=C(C[S+]([O-])C(c1ccccc1)c1ccccc1)NO (centres undefined) | > 30 µM |
| COc1ccc(C(=O)NCc2ccc(OCCN(C)C)cc2)cc1OC [ITOPRIDE] | > 30 µM |
| N[C@@H](C(=O)N[C@@H]1C(=O)N2C(C(=O)O)=C(Cl)CS[C@H]12)c1ccccc1 [CEFACLOR ANHYDROUS] | > 30 µM |
| CCOC(=O)[C@H](CCc1ccccc1)N[C@H]1CCCN2CCC[C@@H](C(=O)O)N2C1=O | > 30 µM |
| C#CC1(OC(N)=O)CCCCC1 [ETHINAMATE] | > 10 µM |
| CCNC(C)Cc1cccc(C(F)(F)F)c1 (centres undefined) | > 30 µM |
| COc1ccc(C(=O)N2CCN(c3ccc4c(c3)CCC(=O)N4)CC2)cc1OC | > 30 µM |
| C1COC(NC(C2CC2)C2CC2)=N1 | > 30 µM |
| CCc1ccc(CCOc2ccc(CC3SC(=O)NC3=O)cc2)nc1 (centres undefined) | > 30 µM |
| NS(=O)(=O)c1cc(Cl)c(Cl)c(S(N)(=O)=O)c1 [DICHLORPHENAMIDE] | > 10 µM |
| C[N+](C)(C)CC(=O)O | > 30 µM |
| O=C(O)c1cc(-c2ccc(F)cc2F)ccc1O | > 10 µM |
| CCN1CCC[C@H]1CNC(=O)c1cc(S(N)(=O)=O)ccc1OC [LEVOSULPIRIDE] | > 30 µM |

###

// AC50 lookup, one value per entry
- Measured Target: Vasopressin V1a receptor (Homo sapiens); note: assay procedure not described here
- Sequence (P37288 whole entry): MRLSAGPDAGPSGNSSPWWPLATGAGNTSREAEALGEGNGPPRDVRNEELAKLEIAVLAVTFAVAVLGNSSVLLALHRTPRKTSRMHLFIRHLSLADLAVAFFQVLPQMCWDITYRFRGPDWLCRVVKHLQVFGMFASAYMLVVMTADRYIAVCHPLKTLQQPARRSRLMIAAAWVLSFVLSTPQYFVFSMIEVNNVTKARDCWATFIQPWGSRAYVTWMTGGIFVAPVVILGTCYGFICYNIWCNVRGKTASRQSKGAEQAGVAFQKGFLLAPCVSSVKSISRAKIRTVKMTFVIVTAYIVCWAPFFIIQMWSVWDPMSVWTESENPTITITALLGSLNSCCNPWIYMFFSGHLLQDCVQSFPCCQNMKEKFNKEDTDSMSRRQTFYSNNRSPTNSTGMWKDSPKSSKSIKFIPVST

| Compound | AC50 |
| --- | --- |
| CN1CCCC(n2nc(Cc3ccc(Cl)cc3)c3ccccc3c2=O)CC1 (stereo unspecified) | > 30 µM |
| NC(CO)C(=O)NNCc1ccc(O)c(O)c1O (stereo unspecified) [BENSERAZIDE] | > 30 µM |
| CN1C(=O)CC(c2ccccc2)C1=O (stereo unspecified) [PHENSUXIMIDE] | > 10 µM |
| COc1ccc2cccc(CCNC(C)=O)c2c1 | > 10 µM |
| Nc1nc2ccc(OC(F)(F)F)cc2s1 | > 30 µM |
| CCC(C(=O)O)c1ccc(CC(C)C)cc1 (stereo unspecified) | > 30 µM |
| O=C(O)Cc1cn(-c2ccccc2)nc1-c1ccc(Cl)cc1 | > 30 µM |
| C#CCN[C@@H]1CCc2ccccc21 | > 30 µM |
| CO/N=C(\C(=O)N[C@@H]1C(=O)N2C(C(=O)[O-])=C(C[N+]3(C)CCCC3)CS[C@H]12)c1csc(N)n1 | > 300 µM |
| CCN(CC)CCNC(=O)c1cc(Cl)c(N)cc1OC [METOCLOPRAMIDE] | > 10 µM |
| NC(=O)c1cnccn1 [PYRAZINAMIDE] | > 30 µM |

###

Listed here: molecules with reported AC50 for Sodium-dependent noradrenaline transporter (Homo sapiens).
Quantity Measured: AC50

| Molecule | Observed Value |
| --- | --- |
| O=C1CCC(N2C(=O)c3ccccc3C2=O)C(=O)N1 (centres undefined) [THALIDOMIDE] | > 30 µM |
| CN(Cc1cc(Br)cc(Br)c1N)C1CCCCC1 | 22 µM |
| NS(=O)(=O)c1cc2c(cc1Cl)NC(CC1CCCC1)NS2(=O)=O (centres undefined) [CYCLOPENTHIAZIDE] | > 30 µM |
| Nc1nc2ccc(OC(F)(F)F)cc2s1 | 2.59 µM |
| OCCN1CCN(CCCN2c3ccccc3C=Cc3ccccc32)CC1 | 6.62 µM |
| CN1CCN(C(c2ccccc2)c2ccccc2)CC1 | > 30 µM |
| O=C(O)c1cccc(-c2noc(-c3ccccc3F)n2)c1 | > 30 µM |
| O=C(c1ccc(F)c(F)c1Nc1ccc(I)cc1F)N1CC(O)([C@@H]2CCCCN2)C1 | 16.9 µM |
| CO/N=C(\C(=O)N[C@@H]1C(=O)N2C(C(=O)OCOC(=O)C(C)(C)C)=C(C)CS[C@H]12)c1csc(N)n1 | > 30 µM |
| COc1cc(NCc2ccc3nc(N)nc(N)c3c2C)cc(OC)c1OC [TRIMETREXATE] | 12.3 µM |
| Cn1cc[nH]c1=S | > 30 µM |
| CC(=O)O[C@]1(C(C)=O)CC[C@H]2[C@@H]3C[C@H](C)C4=CC(=O)CC[C@]4(C)[C@H]3CC[C@@]21C [MEDROXYPROGESTERONE ACETATE] | > 30 µM |
| COc1ccc(CCC(C)NCC(O)c2ccc(O)c([S+](C)[O-])c2)cc1 (centres undefined) | 10.6 µM |
| CN1CCC2=C(C1)c1ccccc1Cc1ccccc12 | 3.52 µM |
| CN(C)C(=O)Oc1ccc[n+](C)c1 | > 30 µM |
| O=C(NC[C@H]1CN(c2ccc(N3CCOCC3=O)cc2)C(=O)O1)c1ccc(Cl)s1 | > 30 µM |
| CC(C(=O)O)c1ccc2c(c1)Cc1cccnc1O2 (centres undefined) | > 30 µM |
| Cc1cc2c(cc1CC(=O)c1sccc1S(=O)(=O)Nc1onc(C)c1Cl)OCO2 | > 30 µM |
| CC1=NN(c2ccccc2)C(=O)C1 | > 30 µM |

###

# Lookup of reported AC50 keyed by entry
- Measured Target: Beta-1 adrenergic receptor (Homo sapiens, UniProt P08588); note: assay procedure not described here
- Sequence (P08588 whole entry): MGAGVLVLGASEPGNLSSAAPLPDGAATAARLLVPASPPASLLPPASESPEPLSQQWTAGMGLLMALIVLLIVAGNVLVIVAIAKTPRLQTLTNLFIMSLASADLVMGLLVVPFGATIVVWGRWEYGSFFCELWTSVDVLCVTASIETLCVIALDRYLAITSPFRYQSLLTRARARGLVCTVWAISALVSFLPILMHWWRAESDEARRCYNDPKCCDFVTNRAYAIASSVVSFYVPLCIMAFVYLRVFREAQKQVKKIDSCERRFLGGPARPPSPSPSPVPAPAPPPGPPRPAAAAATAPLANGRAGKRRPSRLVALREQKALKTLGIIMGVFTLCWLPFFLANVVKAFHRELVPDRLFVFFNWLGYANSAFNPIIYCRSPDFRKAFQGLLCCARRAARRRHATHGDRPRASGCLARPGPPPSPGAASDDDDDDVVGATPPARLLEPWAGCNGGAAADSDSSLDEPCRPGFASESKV
- Format: functional

| Compound | AC50 |
| --- | --- |
| CN1C(=O)CC(c2ccccc2)C1=O (stereo not given) [PHENSUXIMIDE] | > 10 µM |
| CN1CC(=O)N2[C@H](c3ccc4c(c3)OCO4)c3[nH]c4ccccc4c3C[C@@H]2C1=O | > 10 µM |
| CN(C)CCCN1c2ccccc2Sc2ccccc21 | > 10 µM |
| CN(CCCN1c2ccccc2CCc2ccccc21)CC(=O)c1ccc(Cl)cc1 | > 30 µM |
| N[C@@H](C(=O)N[C@@H]1C(=O)N2C(C(=O)O)=C(Cl)CS[C@H]12)c1ccccc1 [CEFACLOR ANHYDROUS] | > 30 µM |

###

In what follows, each item is paired with its AC50 for Mu-type opioid receptor (Homo sapiens, UniProt P35372).
Quantity Measured: AC50 (µM)

| Compound | Relation Symbol | Observed Value |
| --- | --- | --- |
| Nc1ccc(C(=O)O)cc1 | > | 30 |
| COc1ccc2c(c1)OC(C)(C)C(c1ccccc1)C2c1ccc(OCCN2CCCC2)cc1 (stereo not given) | = | 11.2 |
| Oc1c(I)cc(I)c2cccnc12 | = | 8.91 |
| COC(=O)C1=C(C)NC(C)=C(C(=O)OC)C1c1ccccc1[N+](=O)[O-] | > | 30 |
| O=C1NCC2(CCN(CCc3ccccc3)CC2)O1 [FENSPIRIDE] | > | 30 |
| CCC(Cc1c(I)cc(I)c(N)c1I)C(=O)O (stereo not given) | > | 30 |
| CC(N/C(=N\C#N)Nc1ccncc1)C(C)(C)C (stereo not given) [PINACIDIL ANHYDROUS] | > | 30 |
| Nc1nc(N)c2nc(-c3ccccc3)c(N)nc2n1 | = | 29.1 |
| C#C[C@]1(O)CC[C@H]2[C@@H]3CCc4cc(O)ccc4[C@H]3CC[C@@]21C | = | 20.6 |
| Nc1nc2c(ncn2CCC(CO)CO)c(=O)[nH]1 | > | 30 |

###

Listed here are compounds together with their documented AC50.
- Measured Target: Glucocorticoid receptor (Homo sapiens); note: assay procedure not described here
- Sequence (P04150 whole entry): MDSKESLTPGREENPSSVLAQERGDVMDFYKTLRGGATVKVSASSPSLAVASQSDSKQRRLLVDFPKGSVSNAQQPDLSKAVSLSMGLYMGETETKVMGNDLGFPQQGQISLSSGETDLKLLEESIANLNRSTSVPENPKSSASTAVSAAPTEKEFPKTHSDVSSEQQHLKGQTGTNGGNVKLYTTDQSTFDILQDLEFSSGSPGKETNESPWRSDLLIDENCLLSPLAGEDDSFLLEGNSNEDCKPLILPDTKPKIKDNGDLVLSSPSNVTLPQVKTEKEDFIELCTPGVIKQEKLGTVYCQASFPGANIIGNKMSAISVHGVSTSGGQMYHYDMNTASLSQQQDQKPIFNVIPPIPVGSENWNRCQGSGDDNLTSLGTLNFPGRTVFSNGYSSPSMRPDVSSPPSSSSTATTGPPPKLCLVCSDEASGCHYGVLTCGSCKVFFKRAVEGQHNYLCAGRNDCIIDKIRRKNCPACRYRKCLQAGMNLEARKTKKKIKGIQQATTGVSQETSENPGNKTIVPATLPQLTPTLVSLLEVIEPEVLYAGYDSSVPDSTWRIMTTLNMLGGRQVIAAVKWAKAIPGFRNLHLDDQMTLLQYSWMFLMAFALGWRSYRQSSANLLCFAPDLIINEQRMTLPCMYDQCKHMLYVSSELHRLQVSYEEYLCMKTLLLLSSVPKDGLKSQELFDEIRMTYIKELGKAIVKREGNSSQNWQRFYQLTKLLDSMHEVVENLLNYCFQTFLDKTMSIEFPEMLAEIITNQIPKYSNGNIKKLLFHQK

| Compound | AC50 |
| --- | --- |
| NC(=O)c1cnccn1 [PYRAZINAMIDE] | > 30 µM |
| Cc1ccc(-c2nc3ccc(C)cn3c2CC(=O)N(C)C)cc1 | > 30 µM |
| C#C[C@]1(O)CC[C@H]2[C@@H]3CCc4cc(O)ccc4[C@H]3CC[C@@]21C | 0.12 µM |
| CCC1(C2=CCCCCC2)C(=O)NC(=O)NC1=O | > 10 µM |
| C1=Cc2cccc(OCC3CNCCO3)c2C1 (stereo not given) | > 30 µM |
| C#CC1(OC(N)=O)CCCCC1 [ETHINAMATE] | > 10 µM |
| COc1ccc2c(c1)C(=O)N(CCc1ccc(S(=O)(=O)NC(=O)NC3CCCCC3)cc1)C(=O)C2(C)C | > 30 µM |
| Cc1cccc(C)c1NC(=O)C1CCCCN1C (stereo not given) [MEPIVACAINE] | > 30 µM |
| CC(C)[N+](C)(CCC(C(N)=O)(c1ccccc1)c1ccccc1)C(C)C [ISOPROPAMIDE] | > 10 µM |
| CC(C(O)c1ccc(O)cc1)N1CCC(Cc2ccccc2)CC1 (stereo not given) | > 30 µM |
